# Test system: DIPGX37 (H3.3 K27M diffuse intrinsic pontine glioma line)
# assay: area under dose-response curve of % growth inhibition (log2 RLU vs DMSO / staurosporine), 1e-11 to 1e-4 M (% x log10 M); higher = more growth inhibition
Binary classification by area under dose-response curve, with 60 as an inclusive lower bound for criterion met; all other cases are criterion not met.

Observe how each entry below is paired with its result.
Has N[C@H]1C[C@@H]1c1ccc(-c2cccc(O)c2)cc1 a recorded area under dose-response curve greater than or equal to 60?
criterion met

Has CCOC(=O)c1ccnc(CNCC(=O)N(CC)CCN(C)C)c1 a recorded area under dose-response curve greater than or equal to 60?
criterion not met

Has Nc1nc(Cl)nc2c1ncn2[C@H]1C[C@H](O)[C@@H](CO)O1 a recorded area under dose-response curve greater than or equal to 60?
criterion not met

Has O=C(Nc1ccccc1-c1cn2c(CN3CCNCC3)csc2n1)c1cnc2ccccc2n1 a recorded area under dose-response curve greater than or equal to 60?
criterion met

Has CC1=C(C(=O)OC(C)C)C(c2cccc([N+](=O)[O-])c2)C(C(=O)OC2CN(C(c3ccccc3)c3ccccc3)C2)=C(N)N1 (stereo not drawn) a recorded area under dose-response curve greater than or equal to 60?
criterion met

New cases:
Has O=C(Nc1ccc([N+](=O)[O-])cc1Cl)c1cc(Cl)ccc1O [NICOLSAMIDE] a recorded area under dose-response curve greater than or equal to 60?
criterion met

Has CN(C)c1ccc(C(=C2C=CC(=[N+](C)C)C=C2)c2ccc(N(C)C)cc2)cc1 a recorded area under dose-response curve greater than or equal to 60?
criterion met

Has CC(=O)O[C@@]12CO[C@@H]1C[C@H](O)[C@@]1(C)C(=O)[C@H](O)C3=C(C)[C@@H](OC(=O)[C@H](O)[C@@H](NC(=O)OC(C)(C)C)c4ccccc4)C[C@@](O)([C@@H](OC(=O)c4ccccc4)[C@H]21)C3(C)C a recorded area under dose-response curve greater than or equal to 60?
criterion not met

----------
# Tested on: HABS (astrocyte control)
# assay: EC50 (inflection of fitted growth-inhibition curve) (log10 M)
Simple rule here: EC50 (log10 M) less than -6 is Y, otherwise N.

Observe how each entry below is paired with its result.
Consider NC(=O)Nc1sc(-c2ccc(F)cc2)cc1C(N)=O . Does its EC50 (log10 M) lie strictly below -6?
N

Consider O=C(c1ccc(Nc2nccc(-c3cc4ccccc4s3)n2)cc1)N1CCC(N2CCCC2)CC1 . Does its EC50 (log10 M) lie strictly below -6?
N

Consider Nc1ccc2ncnc(NCCc3ccc(Oc4ccccc4)cc3)c2c1 . Does its EC50 (log10 M) lie strictly below -6?
Y

Consider CCNC(=O)c1noc(-c2cc(C(C)C)c(O)cc2O)c1-c1ccc(CN2CCOCC2)cc1 . Does its EC50 (log10 M) lie strictly below -6?
Y

Consider COc1cccc2c1C(=O)c1c(O)c3c(c(O)c1C2=O)C[C@@](O)(C(=O)CO)C[C@@H]3O[C@H]1C[C@H](N)[C@H](O)[C@H](C)O1 . Does its EC50 (log10 M) lie strictly below -6?
Y

With those in mind, consider the next compound.
Consider NC1CCC(Nc2cc(-c3cccc(NCc4cccc(F)c4)n3)c(Cl)cn2)CC1 (configuration not stated) . Does its EC50 (log10 M) lie strictly below -6?
N

----------
# Test system: SUDIPGXXI (diffuse intrinsic pontine glioma line)
# assay: maximal growth inhibition (yFin) relative to DMSO / staurosporine; higher = more efficacious
measurement label: maximal growth inhibition (%)
Please give a number only; it is taken to be in %.

Known maximal growth inhibition results, listed for orientation:
maximal growth inhibition in this record for COc1ncc(-c2ccc3nccc(-c4ccnnc4)c3c2)cc1NS(=O)(=O)c1ccc(F)cc1F [OMIPALISIB] : 118

maximal growth inhibition in this record for Cc1nc(Nc2ncc(C(=O)Nc3c(C)cccc3Cl)s2)cc(N2CCN(CCO)CC2)n1 [DASATINIB] : 110

maximal growth inhibition in this record for CC(C)(C)OC(=O)Nc1ccc(-c2cc(C(=O)NCCCCCCC(=O)NO)no2)cc1 [BML-281] : 104

maximal growth inhibition in this record for C=CCn1c(=O)c2cnc(Nc3ccc(N4CCN(C)CC4)cc3)nc2n1-c1cccc(C(C)(C)O)n1 [MK-1775] : 91.8

maximal growth inhibition in this record for O=C(Nc1ccc(Nc2nccc(Nc3cc(C4CCCC4)[nH]n3)n2)cc1)Nc1cccc(C(F)(F)F)c1 [CD532] : 109

New cases:
maximal growth inhibition in this record for CCCc1cc(C)[nH]c(=O)c1CNC(=O)c1cc(-c2ccnc(N3CCN(C)CC3)c2)cc2c1cnn2C(C)C [GSK343] : 126

maximal growth inhibition in this record for NC1CCC(Nc2cc(-c3cccc(NCc4cccc(F)c4)n3)c(Cl)cn2)CC1 (stereo not drawn) [CDK9-IN-2] : 95.9

maximal growth inhibition in this record for C[C@@]12OC(=O)[C@]1([C@@H](O)[C@@H]1C=CCCC1)NC(=O)[C@@H]2CCCl [MARIZOMIB] : 109

maximal growth inhibition in this record for CC(C)c1c2cc(-c3ccnc(NC4CCC(NC5CCOCC5)CC4)n3)ccc2nn1C (stereo not drawn) : 99.9

maximal growth inhibition in this record for CN(C)C/C=C/C(=O)Nc1cc2c(Nc3ccc(F)c(Cl)c3)ncnc2cc1O[C@H]1CCOC1 [AFATINIB] : 120

maximal growth inhibition in this record for COc1ccc(C[C@H](NC(=O)[C@H](C)NC(=O)CN2CCOCC2)C(=O)N[C@@H](Cc2ccccc2)C(=O)C2(C)CO2)cc1 (stereo in doubt) [ONX-0914] : 93.9

maximal growth inhibition in this record for NC(=O)Nc1sc(-c2ccc(F)cc2)cc1C(N)=O [TPCA-1] : 122

maximal growth inhibition in this record for CCOC(=O)c1ccc(C#Cc2ccc3c(c2)C(C)(C)CCS3)nc1 [TAZAROTENE] : 107
